Task for the reader: assign each of the following compounds its reported inhibition.
biological target: Integrin beta-1 (Homo sapiens) + Integrin alpha-4 (Homo sapiens) (UniProt P13612+P05556); test: alpha4beta1 integrin LIBS antibody binding reduction – U937 cells, HUTS-21 mAb, flow cytometry, validation set, VLA-4 allosteric modulator project, pilot screen (AID 2674); conditions: HUTS-21 LIBS mAb binding, at 6.7 µM, hits give high values, binding induced by LDV ligand;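 also: antibody binding induced by the VLA-4 ligand LDV present at three times its Kd; 0% = LDV ligand with antibody and no compound and 100% = antibody without LDV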
Sequence (P05556 whole entry, looked up): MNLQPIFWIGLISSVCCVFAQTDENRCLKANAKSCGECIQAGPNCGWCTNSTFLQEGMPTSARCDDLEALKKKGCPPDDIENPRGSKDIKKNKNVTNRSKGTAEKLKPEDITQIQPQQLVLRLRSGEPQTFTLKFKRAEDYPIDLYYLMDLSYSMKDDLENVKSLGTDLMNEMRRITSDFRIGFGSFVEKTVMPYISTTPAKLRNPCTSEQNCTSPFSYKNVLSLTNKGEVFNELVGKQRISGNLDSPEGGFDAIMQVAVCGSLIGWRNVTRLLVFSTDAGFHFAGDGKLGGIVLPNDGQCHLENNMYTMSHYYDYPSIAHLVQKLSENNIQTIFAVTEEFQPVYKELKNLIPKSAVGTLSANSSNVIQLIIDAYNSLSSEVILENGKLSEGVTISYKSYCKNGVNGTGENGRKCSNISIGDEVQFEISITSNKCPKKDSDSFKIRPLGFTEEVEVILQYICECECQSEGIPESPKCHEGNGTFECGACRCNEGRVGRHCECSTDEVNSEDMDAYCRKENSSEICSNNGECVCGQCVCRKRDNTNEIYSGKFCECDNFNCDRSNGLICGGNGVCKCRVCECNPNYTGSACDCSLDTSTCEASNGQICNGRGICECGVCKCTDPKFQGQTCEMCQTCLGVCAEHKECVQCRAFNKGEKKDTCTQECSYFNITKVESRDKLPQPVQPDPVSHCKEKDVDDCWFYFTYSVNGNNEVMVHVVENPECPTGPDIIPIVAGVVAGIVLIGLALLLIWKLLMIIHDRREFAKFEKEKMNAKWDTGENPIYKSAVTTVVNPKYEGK
Sequence (P13612 whole entry, looked up): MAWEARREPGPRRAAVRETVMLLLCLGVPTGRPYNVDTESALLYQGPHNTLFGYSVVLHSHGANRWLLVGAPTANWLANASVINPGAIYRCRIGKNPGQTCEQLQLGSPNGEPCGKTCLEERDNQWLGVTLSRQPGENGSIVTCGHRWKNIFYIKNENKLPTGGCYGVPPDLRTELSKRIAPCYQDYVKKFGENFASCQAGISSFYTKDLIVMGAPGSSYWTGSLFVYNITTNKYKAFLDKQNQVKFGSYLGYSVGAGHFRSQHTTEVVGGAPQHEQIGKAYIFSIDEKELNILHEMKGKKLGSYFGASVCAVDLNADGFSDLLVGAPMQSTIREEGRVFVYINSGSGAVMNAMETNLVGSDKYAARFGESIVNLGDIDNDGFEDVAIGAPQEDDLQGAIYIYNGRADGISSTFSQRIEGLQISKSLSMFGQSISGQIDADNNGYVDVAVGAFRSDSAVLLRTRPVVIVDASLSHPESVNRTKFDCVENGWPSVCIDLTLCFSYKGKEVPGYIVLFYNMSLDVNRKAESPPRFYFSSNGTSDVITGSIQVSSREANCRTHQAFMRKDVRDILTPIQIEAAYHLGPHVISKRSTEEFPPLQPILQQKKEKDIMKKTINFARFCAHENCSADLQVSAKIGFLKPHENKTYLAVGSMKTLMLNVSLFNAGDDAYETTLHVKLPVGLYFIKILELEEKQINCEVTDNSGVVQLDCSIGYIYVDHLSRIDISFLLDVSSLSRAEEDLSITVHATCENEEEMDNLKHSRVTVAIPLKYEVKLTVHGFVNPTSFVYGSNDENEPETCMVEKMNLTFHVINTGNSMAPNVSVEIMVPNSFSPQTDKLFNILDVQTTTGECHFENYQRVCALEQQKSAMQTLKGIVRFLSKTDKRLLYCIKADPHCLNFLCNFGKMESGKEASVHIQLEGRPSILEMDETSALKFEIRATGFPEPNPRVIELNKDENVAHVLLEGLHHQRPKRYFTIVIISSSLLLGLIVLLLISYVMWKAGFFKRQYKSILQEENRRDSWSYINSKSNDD
The source made the active and inactive calls.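 The calls were made as follows: active = inhibition above 50%, about 3 SD of the validation set; inactive = the rest.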

Under Integrin beta-1 (Homo sapiens) + Integrin alpha-4 (Homo sapiens) (UniProt P13612+P05556): inhibition value of N/C(=N\OC(=O)c1ccc(Br)o1)c1ccccn1 ?
17.6% (inactive)

Queued: CC12CCC(C(=O)NCc3ccccn3)(OC1=O)C2(C)C (centres undefined)
1.59% (inactive)

Same for Cc1cn([C@H]2C[C@H](N=[N+]=[N-])[C@@H](CO)O2)c(=O)[nH]c1=O
16.2% (inactive)

Try the compound CCc1cc(=O)oc2cc3occ(-c4ccc(OC)c(F)c4)c3cc12
16.2% (inactive)

Now give it for Nc1[nH]c(=O)ncc1F too.
10% (inactive)

What about CC1(C)C(=O)OC(C(=O)c2ccc(Cl)cc2)C(C)(C)C1=O (centres undefined) ?
-11.9% (inactive)

And the next one, CC(=O)[C@H]1CC[C@H]2[C@@H]3C[C@H](C)C4=CC(=O)CC[C@]4(C)[C@H]3[C@@H](O)C[C@]12C ?
2.58% (inactive)

What would you report for COc1ccccc1/C=C/C(=O)c1c2c(c(C)[nH]c1=O)CCCC2 ?
17.6% (inactive)

Entry CC(=O)CCc1c(C)c2cccc(C)c2[nH]c1=O please
-9.98% (inactive)

Also Cc1ccc(S(=O)(=O)n2ccnc2)cc1C ?
6.55% (inactive)

One more compound: CC(C)OC(=O)C1C2C=CC3(CN(CC4CCCO4)C(=O)C13)O2 (centres undefined)
-4.52% (inactive)

Cool, now COC(=O)C1=NN(C(=O)c2cccc(Br)c2)C(O)(c2ccc(Cl)cc2)C1 (centres undefined)
-83.5% (inactive)

What would you report for CC1(C#CC[N+]2(C)CCCCC2)CCC2C(O1)c1ccccc1OC2(C)C (centres undefined) ?
-6.45% (inactive)

Note, next up: c1ccc2c(c1)CCOC2CNCCCN1CCCCC1 (centres undefined)
14.2% (inactive)

Note, next up: N#C/C(C(N)=O)=c1/ccc2c(c1)N1C3=C(CCCC3)CC3CCCCC31N=2 (centres undefined)
-74.8% (inactive)

Now consider O=C(CS(=O)(=O)Cc1ccccc1)NCc1ccc2c(c1)OCO2 and answer again.
-3.24% (inactive)

Another compound: OCCOCCN1CCN(C(c2ccccc2)c2ccc(Cl)cc2)CC1 (centres undefined)
-0.33% (inactive)

Ok, now COc1cc2c(cc1OC)CN(C(=O)c1ccc(S(=O)(=O)N(C)c3ccccc3)cc1)CC2
5.69% (inactive)

What do you get for COc1ccc(S(=O)(=O)NCc2ccco2)c2ccccc12 ?
7.76% (inactive)

Entry O=C(O)CCCNc1ccc(S(=O)(=O)Nc2ccccc2C(=O)O)cc1C(=O)O please
12% (inactive)

Then NC[C@H]1O[C@H](O[C@H]2[C@H](O)[C@@H](O[C@H]3O[C@H](CO)[C@@H](O)[C@H](N)[C@H]3O)[C@H](N)C[C@@H]2N)[C@H](N)C[C@@H]1O ?
12.5% (inactive)

Now consider COc1ccc(C(=O)Nc2ncc3c(n2)CC(C)CC3=O)cc1 (centres undefined) and answer again.
-12.7% (inactive)

And the next one, Cc1ccc2c(c1)c(C)cc(=O)n2CCC(=O)O ?
13.2% (inactive)

Please give the result for COc1ccc(C2NCCC3(O)CCCCC23)c(OC)c1OC (centres undefined) too.
-11.3% (inactive)

Let us now turn to CCc1cc(=O)oc2cc(OCc3nn[nH]n3)ccc12
-10.8% (inactive)

What about this compound? CC12CN3CC(C)(CN(C1)C3c1ccc(Cl)cc1Cl)C2=O (centres undefined)
5.77% (inactive)

And the next one, Nc1ccn([C@@H]2O[C@H](CO)[C@@H](O)[C@@H]2O)c(=O)n1 ?
8.29% (inactive)

Try this compound next: O=C(CN1C(=O)C2CCc3[nH]c4ccccc4c3C2C1=O)N1CCCC1 (centres undefined)
22.9% (inactive)

Field entry: CC(CN1c2ccccc2Sc2ccccc21)N(C)C (centres undefined)
-2.27% (inactive)

Also, CC12CC(c3ccccc3O1)C(C(=O)N1CCOCC1)C(=O)N2 (centres undefined) please.
2.55% (inactive)

Try this compound too: Cc1nc(C2CC(=O)OC23CCCCC3)cs1 (centres undefined)
-0.43% (inactive)

Follow-up entry: CC[C@H]1CN2CCc3cc(OC)c(OC)cc3[C@@H]2C[C@@H]1C[C@H]1NCCc2cc(OC)c(OC)cc21
-27.9% (inactive)

# iterate: O=C(NCCN1CCN(c2ccccc2)CC1)c1cccc(Br)c1
17.1% (inactive)

Do the same for COc1ccc(NC(=O)C2CCCN2C(=O)OC(C)(C)C)cc1 (centres undefined) please
2.55% (inactive)

And then N/C(=N\OC(=O)CCCOc1ccc(Cl)cc1Cl)c1ccccn1 , what is it?
9.71% (inactive)

Same thing, different compound: CCN(CCCCOC(=O)c1ccc(OC)c(OC)c1)C(C)Cc1ccc(OC)cc1 (centres undefined)
22.7% (inactive)

Now try C#C[C@]1(O)CC[C@H]2[C@@H]3CCc4cc(OC5CCCC5)ccc4[C@H]3CC[C@@]21C .
14.2% (inactive)

Further, for Cc1cccc(N2CCN(C(=S)c3ccccc3)CC2)c1 ?
-4.6% (inactive)

Same lookup for COc1ccc(C(=O)CCN2CCc3cc(OC)c(OC)cc3C2)cc1 , please.
1.12% (inactive)

Similarly, O=C(CCC(=O)NCCO)NCCO ?
-1.12% (inactive)

Also need COc1ccc(N2C(=O)C3C(C2=O)C(C(=O)c2ccccc2)N2CCCC32)cc1 (centres undefined) , thanks.
-20.9% (inactive)

// same read-out, input: CC/C(=C(\c1ccc(O)cc1)c1ccc(OCCN(C)C)cc1)c1ccccc1
15% (inactive)

Another compound: COc1ccc(CNC(=O)c2c(O)c3cccc4c3n(c2=O)CCC4)cc1
-7.47% (inactive)

One more compound: CCCCCC(=O)O[C@]1(C(C)=O)CC[C@H]2[C@@H]3CCC4=CC(=O)CC[C@]4(C)[C@H]3CC[C@@]21C
-17.2% (inactive)
